- STUDY TARGET: TDO2 (Homo sapiens, UniProt P48775)
- Construct: decreased levels of NFK in SW48 cells (high TDO expressing cells)
- Sequence (P48775 whole entry): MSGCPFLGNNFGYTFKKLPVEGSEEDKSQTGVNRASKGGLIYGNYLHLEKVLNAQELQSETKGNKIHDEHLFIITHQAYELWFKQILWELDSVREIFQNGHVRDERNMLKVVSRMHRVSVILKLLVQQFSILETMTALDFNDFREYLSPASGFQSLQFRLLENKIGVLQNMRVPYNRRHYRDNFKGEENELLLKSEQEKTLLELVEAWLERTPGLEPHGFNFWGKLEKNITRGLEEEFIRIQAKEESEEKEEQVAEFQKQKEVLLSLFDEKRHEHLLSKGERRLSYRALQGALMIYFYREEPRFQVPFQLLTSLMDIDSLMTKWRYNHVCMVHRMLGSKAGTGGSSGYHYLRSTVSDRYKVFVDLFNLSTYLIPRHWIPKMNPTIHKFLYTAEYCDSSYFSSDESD
- ASSAY NOTES: TDO2 cell assay (NFK GreenScreen, SW48 cells)
- Type: cell-based
- RECORDED CONDITIONS: SW48 cells (high TDO expressing), 200 uM tryptophan, 24 hours; Table 3; read-out: TDO2 Cell Fluor EC50
pEC50: −log10 of the molar value.
Classification field: Fulfilled = pEC50 at or over 6; Not fulfilled = pEC50 under 6.

[[record]]
compound = "OC1CCC(F)(F)CC1C1c2ccccc2-c2cncn21 (single isomer, unassigned) [Example 18c]"
study_target = "TDO2 (Homo sapiens, UniProt P48775)"
group = "Fulfilled"

[[record]]
compound = "NC(=O)c1nc2c(s1)CCC(C1c3ccccc3-c3cncn31)C2O (single isomer, unassigned) [Example 149a]"
study_target = "TDO2 (Homo sapiens, UniProt P48775)"
group = "Fulfilled"

[[record]]
compound = "OC1CC2(CCC2)C1C1c2ccccc2-c2cncn21 (single isomer, unassigned) [Example 67d]"
study_target = "TDO2 (Homo sapiens, UniProt P48775)"
group = "Fulfilled"

[[record]]
compound = "CC1(C)CCC(C2c3ccccc3-c3cncn32)C1O (single isomer, unassigned) [Example 23a]"
study_target = "TDO2 (Homo sapiens, UniProt P48775)"
group = "Not fulfilled"

[[record]]
compound = "OC1c2nccn2CCC1C1c2ccccc2-c2cncn21 (single isomer, unassigned) [Example 88e]"
study_target = "TDO2 (Homo sapiens, UniProt P48775)"
group = "Not fulfilled"

[[record]]
compound = "Cn1cc2c(n1)CCC(C1c3ccccc3-c3cncn31)C2O (single isomer, unassigned) [Example 130g]"
study_target = "TDO2 (Homo sapiens, UniProt P48775)"
group = "Not fulfilled"

[[record]]
compound = "O[C@H]1CN(CC(F)(F)F)CC[C@@H]1[C@H]1c2ccccc2-c2cncn21 [Example 82a]"
study_target = "TDO2 (Homo sapiens, UniProt P48775)"
group = "Not fulfilled"

[[record]]
compound = "OC1COCCC1C1c2ccccc2-c2cncn21 (single isomer, unassigned) [Example 06h]"
study_target = "TDO2 (Homo sapiens, UniProt P48775)"
group = "Not fulfilled"

[[record]]
compound = "CC(=O)N1CC[C@@H](O)[C@H]([C@@H]2c3ccccc3-c3cncn32)C1 (single isomer, unassigned) [Example 12d]"
study_target = "TDO2 (Homo sapiens, UniProt P48775)"
group = "Not fulfilled"

[[record]]
compound = "OC1CCOCC1C1c2c(Cl)cccc2-c2cncn21 (single isomer, unassigned) [Example 69b]"
study_target = "TDO2 (Homo sapiens, UniProt P48775)"
group = "Not fulfilled"

[[record]]
compound = "O[C@@H]1c2nccnc2CC[C@H]1[C@H]1c2ccccc2-c2cncn21 (single isomer, unassigned) [Example 123a]"
study_target = "TDO2 (Homo sapiens, UniProt P48775)"
group = "Not fulfilled"

[[record]]
compound = "N#CCN1CCC(O)C(C2c3ccccc3-c3cncn32)C1 (single isomer, unassigned) [Example 14a]"
study_target = "TDO2 (Homo sapiens, UniProt P48775)"
group = "Fulfilled"


FYI, the data here is from patent US12583858B2.
